Ref: patent US6737383B1

# Tested on: surinam grass
# ASSAY_PROCEDURE: Test B pre/postemergence surinam grass
# Assay type: in vivo, Brachiaria decumbens
# CONDITION_SUMMARY: Postemergence, Rate 250 g/ha; scale of 0 to 10, 0 is no effect, 10 is complete control
# Description: […] At the same time, these crop and weed species were also treated with postemergence applications of test chemicals formulated in the same manner. […] Treated plants and controls were maintained in a greenhouse for twelve to sixteen days, after which all species were compared to controls and visually evaluated. […]
Short version: B. signalgrass plant response rating at least 1 is yes (1), less is no (0).

> print(dat)
                           structure.string  label.class
1  CC(=O)NCn1c(=O)on(C(=O)N(c2ccc(F)cc2F)C(C)C)c1=O       no (0)
2  CC(=O)N(C)CCn1c(=O)on(C(=O)N(c2ccc(F)cc2)C(C)C)c1=O      yes (1)
3  CC[C@@H](C)n1c(=O)on(C(=O)N(c2ccc(F)cc2F)C(C)C)c1=O      yes (1)

Next item in the queue.
Query: Determine whether measured B. signalgrass plant response rating meets or exceeds 1 for CC(C)N(C(=O)n1oc(=O)n(CCCC#N)c1=O)c1ccccc1
Result: yes (1)

----------
# Tested on: crabgrass
# ASSAY_PROCEDURE: Test B pre/postemergence crabgrass
# Type: in vivo, Digitaria sanguinalis
# CONDITION_SUMMARY: Postemergence, Rate 62 g/ha; scale of 0 to 10, 0 is no effect, 10 is complete control
RECORDED_METRIC: Crabgrass plant response rating

Past entries and their recorded results:
> print(dat)
                                   compound  assay.value
1  CC(Cl)=CCn1c(=O)on(C(=O)N(c2ccc(Cl)cc2)C(C)C)c1=O            0
2  Cc1noc(C)c1Cn1c(=O)on(C(=O)N(c2ccc(Cl)cc2)C(C)C)c1=O            5
3  CCOCn1c(=O)on(C(=O)N(c2ccc(F)cc2F)C(C)C)c1=O            8

Query compound follows.
Record CC(C)N(C(=O)n1oc(=O)n(C(C)C(=O)c2ccccc2)c1=O)c1ccc(Cl)cc1 (stereo not shown) . Reported Crabgrass plant response rating: 0

----------
# Test system: soybean
# ASSAY_PROCEDURE: Test B pre/postemergence soybean
# Format: in vivo, Glycine max
# CONDITION_SUMMARY: Postemergence, Rate 125 g/ha; scale of 0 to 10 where 0 is no effect and 10 is complete control
RECORDED_METRIC: Soybean plant response rating
Please respond with just the number, no unit label.

Past entries and their recorded results:
> print(dat)
                                   molecule  assay.value
1  CC(C)N(C(=O)n1oc(=O)n(CC(F)F)c1=O)c1ccccc1 [Compound 746]            3
2  CC(C)N(C(=O)n1oc(=O)n(CCCl)c1=O)c1ccc(F)cc1 [Compound 148]            4
3  CCn1c(=O)on(C(=O)N(c2ccc(F)cc2)C(C)C)c1=O [Compound 107]            4

Query molecule follows.
Record C=C(Cn1c(=O)on(C(=O)N(c2ccccc2)C(C)C)c1=O)C(C)(C)C [Compound 648] . Reported Soybean plant response rating: 2
